Assay system: UniProt:Q9UBF8
Sequence (Q9UBF8 whole entry): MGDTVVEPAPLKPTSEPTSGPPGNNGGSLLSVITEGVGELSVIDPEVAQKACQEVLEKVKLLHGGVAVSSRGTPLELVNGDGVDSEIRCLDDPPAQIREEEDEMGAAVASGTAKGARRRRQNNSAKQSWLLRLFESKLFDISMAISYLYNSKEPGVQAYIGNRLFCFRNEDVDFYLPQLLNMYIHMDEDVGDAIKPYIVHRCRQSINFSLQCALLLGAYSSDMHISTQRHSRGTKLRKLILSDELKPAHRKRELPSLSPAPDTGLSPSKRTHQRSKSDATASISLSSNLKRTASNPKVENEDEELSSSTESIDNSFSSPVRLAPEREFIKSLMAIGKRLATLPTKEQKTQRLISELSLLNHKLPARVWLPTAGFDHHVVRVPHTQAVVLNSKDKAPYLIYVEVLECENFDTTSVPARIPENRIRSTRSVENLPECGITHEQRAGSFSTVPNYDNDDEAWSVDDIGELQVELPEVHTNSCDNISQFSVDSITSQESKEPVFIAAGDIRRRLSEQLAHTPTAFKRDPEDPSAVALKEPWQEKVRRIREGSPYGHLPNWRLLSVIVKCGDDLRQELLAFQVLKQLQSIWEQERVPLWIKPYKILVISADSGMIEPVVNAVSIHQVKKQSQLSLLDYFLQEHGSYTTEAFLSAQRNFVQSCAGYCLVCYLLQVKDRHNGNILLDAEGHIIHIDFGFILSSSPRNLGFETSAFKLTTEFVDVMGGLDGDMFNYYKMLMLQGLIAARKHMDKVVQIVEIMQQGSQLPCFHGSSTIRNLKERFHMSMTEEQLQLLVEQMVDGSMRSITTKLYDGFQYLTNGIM
Assay metric: IC50 (nM)
Express it in nM; write the number only.

Q) Could you share which IC50 value was measured for COC[C@H]1OC(=O)c2coc3c2[C@@]1(C)C1=C(C3=O)[C@@H]2CCC(=O)[C@@]2(C)C[C@H]1OC(C)=O ?
A) 298

---

Assay system: human PI4KA (Homo sapiens)
Sequence (P42356 59-2102 limits assumed): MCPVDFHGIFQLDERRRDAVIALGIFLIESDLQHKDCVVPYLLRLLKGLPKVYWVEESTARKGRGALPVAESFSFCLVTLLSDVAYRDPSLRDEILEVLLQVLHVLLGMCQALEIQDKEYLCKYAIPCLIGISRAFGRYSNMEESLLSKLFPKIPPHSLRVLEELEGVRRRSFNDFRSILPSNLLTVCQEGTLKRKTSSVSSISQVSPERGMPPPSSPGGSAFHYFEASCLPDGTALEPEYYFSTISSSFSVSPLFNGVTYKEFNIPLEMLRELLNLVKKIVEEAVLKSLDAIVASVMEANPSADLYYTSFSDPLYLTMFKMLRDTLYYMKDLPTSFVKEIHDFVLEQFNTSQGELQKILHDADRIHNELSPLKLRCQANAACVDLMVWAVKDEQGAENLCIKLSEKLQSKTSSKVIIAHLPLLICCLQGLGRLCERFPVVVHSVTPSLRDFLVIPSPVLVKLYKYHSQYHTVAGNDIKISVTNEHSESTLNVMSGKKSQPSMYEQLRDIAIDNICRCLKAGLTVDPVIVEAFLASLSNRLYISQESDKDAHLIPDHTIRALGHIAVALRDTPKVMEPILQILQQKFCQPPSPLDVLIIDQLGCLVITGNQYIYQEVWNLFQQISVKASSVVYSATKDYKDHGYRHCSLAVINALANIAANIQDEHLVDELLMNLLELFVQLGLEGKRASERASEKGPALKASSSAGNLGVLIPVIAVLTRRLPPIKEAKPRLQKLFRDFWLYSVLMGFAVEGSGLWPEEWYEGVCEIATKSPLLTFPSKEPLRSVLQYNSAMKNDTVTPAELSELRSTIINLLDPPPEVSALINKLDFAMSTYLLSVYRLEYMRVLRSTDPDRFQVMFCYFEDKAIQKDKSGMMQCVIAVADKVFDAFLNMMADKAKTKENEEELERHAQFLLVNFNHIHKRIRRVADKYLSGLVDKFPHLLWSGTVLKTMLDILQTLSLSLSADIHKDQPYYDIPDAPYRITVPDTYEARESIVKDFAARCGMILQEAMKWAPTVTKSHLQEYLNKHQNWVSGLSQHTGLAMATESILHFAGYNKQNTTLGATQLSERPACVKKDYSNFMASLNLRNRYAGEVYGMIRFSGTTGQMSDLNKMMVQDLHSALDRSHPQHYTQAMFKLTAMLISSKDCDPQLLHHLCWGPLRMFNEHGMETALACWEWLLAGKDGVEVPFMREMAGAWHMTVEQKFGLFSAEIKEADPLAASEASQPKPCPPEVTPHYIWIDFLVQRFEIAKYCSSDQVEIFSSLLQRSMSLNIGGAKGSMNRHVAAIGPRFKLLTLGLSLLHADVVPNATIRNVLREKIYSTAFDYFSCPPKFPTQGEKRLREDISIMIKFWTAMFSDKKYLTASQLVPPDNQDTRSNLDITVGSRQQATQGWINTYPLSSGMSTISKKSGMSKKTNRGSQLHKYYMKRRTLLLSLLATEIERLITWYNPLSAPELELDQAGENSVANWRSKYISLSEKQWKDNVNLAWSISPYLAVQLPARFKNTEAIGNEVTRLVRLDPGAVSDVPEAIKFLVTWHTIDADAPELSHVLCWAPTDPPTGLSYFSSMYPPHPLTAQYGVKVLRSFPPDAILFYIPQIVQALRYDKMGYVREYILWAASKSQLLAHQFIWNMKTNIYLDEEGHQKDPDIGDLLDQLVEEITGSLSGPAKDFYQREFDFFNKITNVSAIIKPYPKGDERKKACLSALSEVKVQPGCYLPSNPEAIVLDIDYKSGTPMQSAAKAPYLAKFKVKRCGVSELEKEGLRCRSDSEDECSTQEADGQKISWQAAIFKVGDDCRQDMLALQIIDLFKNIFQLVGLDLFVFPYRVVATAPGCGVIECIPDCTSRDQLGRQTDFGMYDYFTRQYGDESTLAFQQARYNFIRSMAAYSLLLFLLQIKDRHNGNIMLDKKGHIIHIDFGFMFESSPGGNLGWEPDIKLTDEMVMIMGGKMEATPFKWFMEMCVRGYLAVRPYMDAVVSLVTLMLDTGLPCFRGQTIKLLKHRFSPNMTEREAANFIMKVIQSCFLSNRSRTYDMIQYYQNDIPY
Measurement description: ADP-Glo PI 4-kinase assay, PI4KA
Type: biochemical
Assay metric: pIC50
FYI, pIC50 means -log10 of a concentration in mol per litre.

Q) Could you tell me which pIC50 is on file for COC[C@H]1OC(=O)c2coc3c2[C@@]1(C)C1=C(C3=O)[C@@H]2CCC(=O)[C@@]2(C)C[C@H]1OC(C)=O ?
A) 6.72
